Biological target: PIK3CA (human)
Assay: Inhibition of PIK3CA Kinase Activity
pIC50: −log10 of the molar value.

>  <SMILES_TEXT>
COC[C@H]1OC(=O)c2coc3c2[C@@]1(C)C1=C(C3=O)[C@@H]2CC[C@H](C(=O)OCc3cc(=O)oc4cc(N(C)C)ccc34)[C@@]2(C)C[C@H]1OC(C)=O

>  <EXPERIMENTAL_TARGET>
PIK3CA (human)

>  <pIC50>
6.16

$$$$
>  <SMILES_TEXT>
CC(=O)N1CCC(n2ncc3c(N4CCOCC4)nc(-c4cccc(O)c4)nc32)CC1

>  <EXPERIMENTAL_TARGET>
PIK3CA (human)

>  <pIC50>
7.16

$$$$
>  <SMILES_TEXT>
CNC(=O)Nc1ccc(-c2nc(N3CC4CCC(C3)O4)c3cnn([C@H]4CC[C@@H](OC)CC4)c3n2)cc1

>  <EXPERIMENTAL_TARGET>
PIK3CA (human)

>  <pIC50>
6.15

$$$$
>  <SMILES_TEXT>
c1ccc(CN2CCC(n3ncc4c(N5CCOCC5)nc(-c5cc6ccccc6[nH]5)nc43)CC2)cc1

>  <EXPERIMENTAL_TARGET>
PIK3CA (human)

>  <pIC50>
5.95

$$$$
>  <SMILES_TEXT>
N#Cc1cccc(-c2c[nH]c3ncc(-c4cnc(N)c(S(=O)(=O)N5CCOCC5)c4)cc23)c1

>  <EXPERIMENTAL_TARGET>
PIK3CA (human)

>  <pIC50>
6.89

$$$$
>  <SMILES_TEXT>
CNC(=O)Nc1ccc(-c2nc(N3CC4CCC(C3)O4)c3cnn([C@H]4CC[C@H](O)CC4)c3n2)cc1

>  <EXPERIMENTAL_TARGET>
PIK3CA (human)

>  <pIC50>
6.05

$$$$
